- SYSTEM TESTED: cGMP-specific 3',5'-cyclic phosphodiesterase (Homo sapiens, UniProt O76074)
- METHOD NOTES: Inhibition of human recombinant PDE5 at 100 uM after 1.5 hrs by fluorescent polarization assay
READOUT TYPE: Inhibition (%)

// worked examples, Inhibition included
INSERT INTO measurements (smiles_repr, readout_type, result_number) VALUES
  ('CCN1C(=O)[C@H]2Cc3c([nH]c4ccccc34)[C@@H](c3ccccc3Br)N2C1=O', 'Inhibition', 98.7),
  ('CCN1C(=O)[C@@H]2Cc3c([nH]c4ccccc34)[C@@H](c3ccccc3Br)N2C1=O', 'Inhibition', 99.5),
  ('CCN1C(=O)[C@@H]2Cc3c([nH]c4ccccc34)[C@@H](c3ccccc3Br)N2C1=S', 'Inhibition', 93.5),
  ('CCN1C(=O)[C@H]2Cc3c([nH]c4ccccc34)[C@H](c3ccccc3Br)N2C1=O', 'Inhibition', 93),
  ('CN1CC(=O)N2[C@@H](c3ccccc3Br)c3[nH]c4ccccc4c3C[C@@H]2C1=O', 'Inhibition', 75.5);

(a) CN1CC(=O)N2[C@H](c3ccccc3Br)c3[nH]c4ccccc4c3C[C@@H]2C1=O
(b) COC(=O)[C@H]1Cc2c([nH]c3ccccc23)[C@H](c2ccccc2Br)N1
(c) COC(=O)[C@H]1Cc2c([nH]c3ccccc23)[C@H](c2ccccc2Br)N1C(=O)CCl
Sort these molecules on Inhibition so the largest reading comes first. # output: labels, in the requested order
a, c, b
